System: SSTR2-overexpressing tumors, AR42J
Experiment: Biodistribution of ^212Pb SSTR2 analogs in AR42J tumor-bearing mice
Assay type: in vivo, athymic nude female mice
Details: mouse, in vivo
PROPERTY MEASURED: AR42J tumor AUC
Answer with a bare number; do not write a unit.

MOLECULE	PROPERTY MEASURED	TEST RESULT
C[C@@H](O)[C@@H]1NC(=O)[C@H](CCCCN)NC(=O)[C@@H](Cc2c[nH]c3ccccc23)NC(=O)[C@H](Cc2ccc(O)cc2)NC(=O)[C@@H](NC(=O)[C@@H](Cc2ccccc2)NC(=O)CCOCCOCCNC(=O)CN2CCN(CC(=O)O)CCN(CC(N)=O)CCN(CC(=O)O)CC2)CSSC[C@@H](C(=O)N[C@H](CO)[C@@H](C)O)NC1=O [^212Pb-PSC-PEG2-TOC, metal not drawn, reference compound]	AR42J tumor AUC	290

Asked: Supply measured AR42J tumor AUC of C[C@@H](O)[C@H](NC(=O)[C@@H]1CSSC[C@H](NC(=O)[C@@H](Cc2ccccc2)NC(=O)CCOCCOCCNC(=O)CN2CCN(CC(=O)O)CCN(CC(N)=O)CCN(CC(=O)O)CC2)C(=O)N[C@@H](Cc2ccc(O)cc2)C(=O)N[C@H](Cc2c[nH]c3ccccc23)C(=O)N[C@@H](CCCCN)C(=O)N[C@@H]([C@@H](C)O)C(=O)N1)C(=O)O [[^212Pb]Pb-PSC-PEG2-TATE, metal not drawn] in your reply.
Given back: 274

* * *

Kidney AUC listing for selected compounds.
System: SSTR2-overexpressing tumors, AR42J
Test: Biodistribution of ^212Pb SSTR2 analogs in AR42J tumor-bearing mice
Format: in vivo, athymic nude female mice
Details: mouse, in vivo
Procedure: The background was automatically subtracted from the counts. A standard was also used for decay correction to time of injection or time of collection. The percent injected dose per gram (%ID/g) was calculated for each organ collected. FIGURE 2. […] Tissue uptake is expressed as %ID/g ± SD decay corrected to time of injection (n = 4-5). […] We calculated all SSTR2 analogs' AUC for kidneys and tumors including tumor-to-kidney ratios (T/K AUC ratio) (Figs. 3 and 4). […]
Answer with a bare number; do not write a unit.

Consider the following illustrative entries.
COMPOUND	TEST RESULT
C[C@@H](O)[C@H](NC(=O)[C@@H]1CSSC[C@H](NC(=O)[C@@H](Cc2ccccc2)NC(=O)CCOCCOCCNC(=O)CN2CCN(CC(=O)O)CCN(CC(N)=O)CCN(CC(=O)O)CC2)C(=O)N[C@@H](Cc2ccc(O)cc2)C(=O)N[C@H](Cc2c[nH]c3ccccc23)C(=O)N[C@@H](CCCCN)C(=O)N[C@@H]([C@@H](C)O)C(=O)N1)C(=O)O [[^212Pb]Pb-PSC-PEG2-TATE, metal not drawn]	290
C[C@@H](O)[C@@H]1NC(=O)[C@H](CCCCN)NC(=O)[C@@H](Cc2c[nH]c3ccccc23)NC(=O)[C@H](Cc2ccc(O)cc2)NC(=O)[C@@H](NC(=O)[C@@H](Cc2ccccc2)NC(=O)CCOCCOCCNC(=O)CN2CCN(CC(=O)O)CCN(CC(N)=O)CCN(CC(=O)O)CC2)CSSC[C@@H](C(=O)N[C@H](CO)[C@@H](C)O)NC1=O [^212Pb-PSC-PEG2-TOC, metal not drawn, reference compound]	320
C[C@@H](O)[C@H](NC(=O)[C@@H]1CSSC[C@H](NC(=O)[C@@H](Cc2ccccc2)NC(=O)CN2CCN(CC(N)=O)CCN(CC(N)=O)CCN(CC(N)=O)CC2)C(=O)N[C@@H](Cc2ccc(O)cc2)C(=O)N[C@H](Cc2c[nH]c3ccccc23)C(=O)N[C@@H](CCCCN)C(=O)N[C@@H]([C@@H](C)O)C(=O)N1)C(=O)O [[^212Pb]Pb-DOTAMTATE, metal not drawn]	186

Proceed to the following item.
Asked: Report Kidney AUC from SSTR2-overexpressing tumors, AR42J testing of C[C@@H](O)[C@@H]1NC(=O)[C@H](CCCCN)NC(=O)[C@@H](Cc2c[nH]c3ccccc23)NC(=O)[C@H](Cc2ccc(O)cc2)NC(=O)[C@@H](NC(=O)[C@@H](Cc2ccccc2)NC(=O)CN2CCN(CC(=O)O)CCN(CC(N)=O)CCN(CC(=O)O)CC2)CSSC[C@@H](C(=O)N[C@H](CO)[C@@H](C)O)NC1=O [^212Pb-PSC-TOC, metal not drawn]
Given back: 377

* * *

Test system: SSTR2-overexpressing tumors, AR42J
Experiment: Biodistribution of ^212Pb SSTR2 analogs in AR42J tumor-bearing mice
Type: in vivo, athymic nude female mice
Details: mouse, in vivo
Description: The background was automatically subtracted from the counts. A standard was also used for decay correction to time of injection or time of collection. The percent injected dose per gram (%ID/g) was calculated for each organ collected. FIGURE 2. […] Tissue uptake is expressed as %ID/g ± SD decay corrected to time of injection (n = 4-5). […] We calculated all SSTR2 analogs' AUC for kidneys and tumors including tumor-to-kidney ratios (T/K AUC ratio) (Figs. 3 and 4). […]
Positions of bridges follow the written chain, without caps; N, C: chain ends. Non-standard residues stand in square brackets, D forms with d. Residues, ends and D or L forms follow the SMILES beside them. *: point of attachment. DO3AM = NC(=O)CN1CCN(CC(N)=O)CCN(CC(=O)*)CCN(CC(N)=O)CC1; dPhe(4-NHCONH2) = NC(=O)Nc1ccc(C[C@@H](N)C(=O)O)cc1; Dihydroorotyl(S) = O=C1C[C@@H](C(=O)*)NC(=O)N1; Phe(4-Cl) = N[C@@H](Cc1ccc(Cl)cc1)C(=O)O; Phe(4-NH2) = Nc1ccc(C[C@H](N)C(=O)O)cc1
Kidney AUC listing for selected molecules.
Answer with a bare number; do not write a unit.

MOLECULE	PROPERTY MEASURED	TEST RESULT
C[C@@H](O)[C@H](NC(=O)[C@@H]1CSSC[C@H](NC(=O)[C@@H](Cc2ccccc2)NC(=O)CN2CCN(CC(=O)O)CCN(CC(N)=O)CCN(CC(=O)O)CC2)C(=O)N[C@@H](Cc2ccc(O)cc2)C(=O)N[C@H](Cc2c[nH]c3ccccc23)C(=O)N[C@@H](CCCCN)C(=O)N[C@@H]([C@@H](C)O)C(=O)N1)C(=O)O [[^212Pb]Pb-PSC-TATE, metal not drawn]	Kidney AUC	156

Proceed to the following item.
Asked: Supply measured Kidney AUC of C[C@@H](O)[C@@H]1NC(=O)[C@H](CCCCN)NC(=O)[C@@H](Cc2ccc(NC(N)=O)cc2)NC(=O)[C@H](Cc2ccc(NC(=O)[C@@H]3CC(=O)NC(=O)N3)cc2)NC(=O)[C@H](NC(=O)[C@H](Cc2ccc(Cl)cc2)NC(=O)CN2CCN(CC(N)=O)CCN(CC(N)=O)CCN(CC(N)=O)CC2)CSSC[C@@H](C(=O)N[C@H](Cc2ccc(O)cc2)C(N)=O)NC1=O [[^212Pb]Pb-DOTAM-JR11, metal not drawn] (DO3AM-[Phe(4-Cl)][dC][Phe(4-NH2)](Dihydroorotyl(S))[dPhe(4-NHCONH2)]KTC[dY]-NH2; disulfide 2-7) in your reply.
Given back: 274

* * *

Tested on: SSTR2-overexpressing tumors, AR42J
Assay: Biodistribution of ^212Pb SSTR2 analogs in AR42J tumor-bearing mice
Type: in vivo, athymic nude female mice
Details: mouse, in vivo
Positions of bridges follow the written chain, without caps; N, C: chain ends. Non-standard residues stand in square brackets, D forms with d. Residues, ends and D or L forms follow the SMILES beside them. *: point of attachment. DO3AM = NC(=O)CN1CCN(CC(N)=O)CCN(CC(=O)*)CCN(CC(N)=O)CC1; dPhe(4-NHCONH2) = NC(=O)Nc1ccc(C[C@@H](N)C(=O)O)cc1; Dihydroorotyl(S) = O=C1C[C@@H](C(=O)*)NC(=O)N1; Phe(4-Cl) = N[C@@H](Cc1ccc(Cl)cc1)C(=O)O; Phe(4-NH2) = Nc1ccc(C[C@H](N)C(=O)O)cc1
PROPERTY MEASURED: AR42J tumor AUC
Answer with a bare number; do not write a unit.

Asked: Supply measured AR42J tumor AUC of C[C@@H](O)[C@@H]1NC(=O)[C@H](CCCCN)NC(=O)[C@@H](Cc2c[nH]c3ccccc23)NC(=O)[C@H](Cc2ccc(O)cc2)NC(=O)[C@@H](NC(=O)[C@@H](Cc2ccccc2)NC(=O)CN2CCN(CC(=O)O)CCN(CC(N)=O)CCN(CC(=O)O)CC2)CSSC[C@@H](C(=O)N[C@H](CO)[C@@H](C)O)NC1=O [^212Pb-PSC-TOC, metal not drawn] in your reply.
Given back: 353

Asked: Supply measured AR42J tumor AUC of C[C@@H](O)[C@H](NC(=O)[C@@H]1CSSC[C@H](NC(=O)[C@@H](Cc2ccccc2)NC(=O)CN2CCN(CC(N)=O)CCN(CC(N)=O)CCN(CC(N)=O)CC2)C(=O)N[C@@H](Cc2ccc(O)cc2)C(=O)N[C@H](Cc2c[nH]c3ccccc23)C(=O)N[C@@H](CCCCN)C(=O)N[C@@H]([C@@H](C)O)C(=O)N1)C(=O)O [[^212Pb]Pb-DOTAMTATE, metal not drawn] in your reply.
Given back: 583

Asked: Supply measured AR42J tumor AUC of C[C@@H](O)[C@@H]1NC(=O)[C@H](CCCCN)NC(=O)[C@@H](Cc2ccc(NC(N)=O)cc2)NC(=O)[C@H](Cc2ccc(NC(=O)[C@@H]3CC(=O)NC(=O)N3)cc2)NC(=O)[C@H](NC(=O)[C@H](Cc2ccc(Cl)cc2)NC(=O)CN2CCN(CC(N)=O)CCN(CC(N)=O)CCN(CC(N)=O)CC2)CSSC[C@@H](C(=O)N[C@H](Cc2ccc(O)cc2)C(N)=O)NC1=O [[^212Pb]Pb-DOTAM-JR11, metal not drawn] (DO3AM-[Phe(4-Cl)][dC][Phe(4-NH2)](Dihydroorotyl(S))[dPhe(4-NHCONH2)]KTC[dY]-NH2; disulfide 2-7) in your reply.
Given back: 363

Asked: Supply measured AR42J tumor AUC of C[C@@H](O)[C@H](NC(=O)[C@@H]1CSSC[C@H](NC(=O)[C@@H](Cc2ccccc2)NC(=O)CN2CCN(CC(=O)O)CCN(CC(N)=O)CCN(CC(=O)O)CC2)C(=O)N[C@@H](Cc2ccc(O)cc2)C(=O)N[C@H](Cc2c[nH]c3ccccc23)C(=O)N[C@@H](CCCCN)C(=O)N[C@@H]([C@@H](C)O)C(=O)N1)C(=O)O [[^212Pb]Pb-PSC-TATE, metal not drawn] in your reply.
Given back: 177
